Test system: Vero cells
methodSummary: Cytotoxicity assay on Vero cells (microscopic morphology)
Assay type: cell-based
Set-up: key: -: Safe concentration; + 1, +2, + 3, +4: about 25, 50, 75, 100% of cell sheet was affected respectively; + 1, +2, + 3, +4: about 25, 50, 75, 100% of cell sheet was affected respectively; + 1, +2, + 3, +4: about 25, 50, 75, 100% of cell sheet was affected respectively; + 1, +2, + 3, +4: about 25, 50, 75, 100% of cell sheet was affected respectively; M: masked (color of compounds made cells unseen)
reportedConditions: 30 µg/100µl, 24 h, morphological changes
readoutLabel: Cytotoxicity on Vero cells (cell sheet affected)

- itemSmiles: "COc1ccc(OC)c(C=C2/C(=N/Nc3nc(C)c(/N=N/c4ccc(C)cc4)s3)c3ccccc3/C2=N\\Nc2nc(C)c(/N=N/c3ccc(C)cc3)s2)c1"
  assayValue: "-"
- itemSmiles: "COc1ccc(OC)c(C=C2/C(=N/Nc3nc(C)c(/N=N/c4ccccc4)s3)c3ccccc3/C2=N\\Nc2nc(C)c(/N=N/c3ccccc3)s2)c1"
  assayValue: "-"
- itemSmiles: "COc1ccc(OC)c(C=C2/C(=N/Nc3nc(C)c(/N=N/c4ccc(Cl)cc4)s3)c3ccccc3/C2=N\\Nc2nc(C)c(/N=N/c3ccc(Cl)cc3)s2)c1"
  assayValue: "-"

* * *

Tested on: Vero cells
methodSummary: Cytotoxicity assay on Vero cells (microscopic morphology)
Assay type: cell-based
Parameters: key: -: Safe concentration; + 1, +2, + 3, +4: about 25, 50, 75, 100% of cell sheet was affected respectively; + 1, +2, + 3, +4: about 25, 50, 75, 100% of cell sheet was affected respectively; + 1, +2, + 3, +4: about 25, 50, 75, 100% of cell sheet was affected respectively; + 1, +2, + 3, +4: about 25, 50, 75, 100% of cell sheet was affected respectively; M: masked (color of compounds made cells unseen)
reportedConditions: 70 µg/100µl, 24 h, morphological changes
readoutLabel: Cytotoxicity on Vero cells (cell sheet affected)

- compound: "COc1ccc(OC)c(C=C2/C(=N/Nc3nc(C)c(/N=N/c4ccccc4)s3)c3ccccc3/C2=N\\Nc2nc(C)c(/N=N/c3ccccc3)s2)c1 [7a]"
  targetUnderTest: "Vero cells"
  assayValue: "M"
- compound: "COc1ccc(OC)c(C=C2/C(=N/Nc3nc(-c4ccccc4)cs3)c3ccccc3/C2=N\\Nc2nc(-c3ccccc3)cs2)c1 [compound 13]"
  targetUnderTest: "Vero cells"
  assayValue: "-"
- compound: "COc1ccc(OC)c(C=C2/C(=N/Nc3nc(C)c(/N=N/c4ccc(Cl)cc4)s3)c3ccccc3/C2=N\\Nc2nc(C)c(/N=N/c3ccc(Cl)cc3)s2)c1 [7c]"
  targetUnderTest: "Vero cells"
  assayValue: "-"

* * *

Tested on: Vero cells
methodSummary: Cytotoxicity assay on Vero cells (microscopic morphology)
Type: cell-based
Parameters: key: -: Safe concentration; + 1, +2, + 3, +4: about 25, 50, 75, 100% of cell sheet was affected respectively; + 1, +2, + 3, +4: about 25, 50, 75, 100% of cell sheet was affected respectively; + 1, +2, + 3, +4: about 25, 50, 75, 100% of cell sheet was affected respectively; + 1, +2, + 3, +4: about 25, 50, 75, 100% of cell sheet was affected respectively; M: masked (color of compounds made cells unseen)
reportedConditions: 60 µg/100µl, 24 h, morphological changes
Procedure: Compounds: 10 mg were dissolved in 1 mL (10% DMSO and 90% deionized water), sterilized by 1% antibiotic–antimycotic mixture and stored in −20. Cells: Vero cell line was used. […] Cytotoxic effect of compounds was measured by inoculation different doses of compounds on tested cells then examining them microscopically after 24 h to determine any morphological changes that appeared on cells as a result of being subjected to the compounds[46]. […] Any morphological changes were monitored under a microscope.
readoutLabel: Cytotoxicity on Vero cells (cell sheet affected)

- molecule: "COc1ccc(OC)c(C=C2/C(=N/Nc3nc(C)c(C(C)=O)s3)c3ccccc3/C2=N\\Nc2nc(C)c(C(C)=O)s2)c1 [11a]"
  assayValue: "M"
- molecule: "COc1ccc(OC)c(C=C2/C(=N/Nc3nc(-c4ccccc4)cs3)c3ccccc3/C2=N\\Nc2nc(-c3ccccc3)cs2)c1 [compound 13]"
  assayValue: "-"
- molecule: "COc1ccc(OC)c(C=C2/C(=N/NC3=NC(=O)CS3)c3ccccc3/C2=N\\NC2=NC(=O)CS2)c1 [9a]"
  assayValue: "-"
- molecule: "CCOC(=O)c1sc(N/N=C2/C(=Cc3cc(OC)ccc3OC)/C(=N/Nc3nc(C)c(C(=O)OCC)s3)c3ccccc32)nc1C [11b]"
  assayValue: "M"
- molecule: "COc1ccc(OC)c(C=C2/C(=N/Nc3nc(C)c(/N=N/c4ccc([N+](=O)[O-])cc4)s3)c3ccccc3/C2=N\\Nc2nc(C)c(/N=N/c3ccc([N+](=O)[O-])cc3)s2)c1 [7d]"
  assayValue: "-"
- molecule: "COc1ccc(OC)c(C=C2/C(=N/Nc3nc(C)c(/N=N/c4ccc(C)cc4)s3)c3ccccc3/C2=N\\Nc2nc(C)c(/N=N/c3ccc(C)cc3)s2)c1 [7b]"
  assayValue: "M"
- molecule: "COc1ccc(OC)c(C=C2/C(=N/NC3=NC(=O)C(C)S3)c3ccccc3/C2=N\\NC2=NC(=O)C(C)S2)c1 (centres unmarked) [9b]"
  assayValue: "-"
- molecule: "COc1ccc(OC)c(C=C2C(=NNC(N)=S)c3ccccc3C2=NNC(N)=S)c1 [compound 3]"
  assayValue: "-"
- molecule: "COc1ccc(OC)c(C=C2/C(=N/Nc3nc(C)c(/N=N/c4ccc(Cl)cc4)s3)c3ccccc3/C2=N\\Nc2nc(C)c(/N=N/c3ccc(Cl)cc3)s2)c1 [7c]"
  assayValue: "-"
- molecule: "COc1ccc(OC)c(C=C2/C(=N/Nc3nc(C)cs3)c3ccccc3/C2=N\\Nc2nc(C)cs2)c1 [11c]"
  assayValue: "-"
- molecule: "COc1ccc(OC)c(C=C2C(=O)c3ccccc3C2=O)c1 [compound 1]"
  assayValue: "-"
